Where do the numbers come from? From patent US11247994B2.

Experiment: Blood biochemical analysis and HE staining of tissues in HCT116 tumor-bearing nude mice
Format: in vivo
Settings: tail vein once every two days, 12 times, blood 48 hours after the last treatment
MEASUREMENT_KIND: Aspartate aminotransferase (U/L)
Provide only the numeric value, understood in U/L.

# get_value(readout='Aspartate aminotransferase', item= CCC(C)SSc1ncc[nH]1 (stereo not drawn) [PX-12, 1-methylpropyl-2-imidazolyl disulfide, reference compound] )
169.0

Item under review: CC(C)SSc1nc(N)nc2c1ncn2[C@H]1C[C@H](O)[C@@H](CO)O1 . Reported Aspartate aminotransferase?
122.2

Query (molecule): CCC(C)SSc1nc(N)nc2c1ncn2C1C[C@H](O)[C@@H](CO)O1 (stereo partly drawn) [Compound A, 6-(sec-butyldithio)-2′-deoxyguanosine] ; field requested: Aspartate aminotransferase
153.4

====

Experiment: Blood biochemical analysis and HE staining of tissues in HCT116 tumor-bearing nude mice
Format: in vivo
Settings: tail vein once every two days, 12 times, blood 48 hours after the last treatment
What Glucose was measured for each of the following?
Report the figure in mmol/L without appending any unit label.

Which Glucose is listed for CCC(C)SSc1ncc[nH]1 (stereo not drawn) [PX-12, 1-methylpropyl-2-imidazolyl disulfide, reference compound] ?
1.47

Look at this molecule and give its reported Glucose. CC(C)(C)SSc1nc(N)nc2c1ncn2C1C[C@H](O)[C@@H](CO)O1 (stereo partly drawn) [Compound C, 6-(tert-butyldithio)-2′-deoxyguanosine]
2.99

Requested read-out: Glucose. Entry: Nc1nc(SSCc2ccc(F)cc2)c2ncn(C3C[C@H](O)[C@@H](CO)O3)c2n1 (stereo partly drawn) [B]
2.29

====

Assay: Blood biochemical analysis and HE staining of tissues in HCT116 tumor-bearing nude mice
Type: in vivo
Conditions: tail vein once every two days, 12 times, blood 48 hours after the last treatment
Criterion: Total cholesterol meeting or surpassing 3 mmol/L. Met: true. Not met: false.

Given Nc1nc(SSCc2ccc(F)cc2)c2ncn(C3C[C@H](O)[C@@H](CO)O3)c2n1 (stereo partly drawn) , state whether its Total cholesterol is at least 3 mmol/L.
false

Answer whether Total cholesterol of CCC(C)SSc1ncc[nH]1 (stereo not drawn) [PX-12, 1-methylpropyl-2-imidazolyl disulfide, reference compound] is greater than or equal to 3 mmol/L.
false

Please check the record CC(C)(C)SSc1nc(N)nc2c1ncn2C1C[C@H](O)[C@@H](CO)O1 (stereo partly drawn) and state if its Total cholesterol is at or above 3 mmol/L.
false

Could you verify whether the entry Nc1nc2c(ncn2[C@H]2C[C@H](O)[C@@H](CO)O2)c(=S)[nH]1 [Compound 6-thio-dG, 6-thio-2′-deoxyguanosine, reference compound] shows Total cholesterol of no less than 3 mmol/L?
false

Given the entry CC(C)SSc1nc(N)nc2c1ncn2[C@H]1C[C@H](O)[C@@H](CO)O1 , answer whether its Total cholesterol meets or surpasses 3 mmol/L.
true

====

Assay: Blood biochemical analysis and HE staining of tissues in HCT116 tumor-bearing nude mice
Assay type: in vivo
Conditions: tail vein once every two days, 12 times, blood 48 hours after the last treatment
Protocol: We took human colon cancer cell line HCT116 as the research object, and established a subcutaneous transplanted tumor model of human colon cancer in 32 immunodeficient nude mice. […] The tumor volume was calculated by taking the length of the tumor as the longest diameter and the width as the corresponding vertical diameter, and the tumor volume V=(length×width^2) mm^3/2. […]
MEASUREMENT_KIND: Total bilirubin (µmol/L)
Expressed in µmol/L, but write only the number.

If you can, please state the reported Total bilirubin value of CC(C)SSc1nc(N)nc2c1ncn2[C@H]1C[C@H](O)[C@@H](CO)O1 .
-1.00

So what does the record say about Total bilirubin for Nc1nc(SSCc2ccc(F)cc2)c2ncn(C3C[C@H](O)[C@@H](CO)O3)c2n1 (stereo partly drawn) ?
0.90

Which Total bilirubin value belongs to CCC(C)SSc1nc(N)nc2c1ncn2C1C[C@H](O)[C@@H](CO)O1 (stereo partly drawn) [Compound A, 6-(sec-butyldithio)-2′-deoxyguanosine] ?
0.40

====

Assay: Blood biochemical analysis and HE staining of tissues in HCT116 tumor-bearing nude mice
Type: in vivo
Details: tail vein once every two days, 12 times, blood 48 hours after the last treatment
MEASUREMENT_KIND: Alanine aminotransferase (U/L)
Give the value in U/L but do not write U/L after it.

Could you share which Alanine aminotransferase value was measured for Nc1nc(SSCc2ccc(F)cc2)c2ncn(C3C[C@H](O)[C@@H](CO)O3)c2n1 (stereo partly drawn) ?
105.9

Could you tell me which Alanine aminotransferase is on file for CC(C)(C)SSc1nc(N)nc2c1ncn2C1C[C@H](O)[C@@H](CO)O1 (stereo partly drawn) ?
25.5

I have this compound here, Nc1nc2c(ncn2[C@H]2C[C@H](O)[C@@H](CO)O2)c(=S)[nH]1 [Compound 6-thio-dG, 6-thio-2′-deoxyguanosine, reference compound] , and I need its recorded Alanine aminotransferase.
44.3

Tell me the measured Alanine aminotransferase of CCC(C)SSc1ncc[nH]1 (stereo not drawn) [PX-12, 1-methylpropyl-2-imidazolyl disulfide, reference compound] , please.
30.8

Please give the measured Alanine aminotransferase for this compound: CC(C)SSc1nc(N)nc2c1ncn2[C@H]1C[C@H](O)[C@@H](CO)O1
28.2

Quick one: Alanine aminotransferase for CCC(C)SSc1nc(N)nc2c1ncn2C1C[C@H](O)[C@@H](CO)O1 (stereo partly drawn) [Compound A, 6-(sec-butyldithio)-2′-deoxyguanosine] ?
33.3

====

Test: Blood biochemical analysis and HE staining of tissues in HCT116 tumor-bearing nude mice
Assay type: in vivo
Conditions: tail vein once every two days, 12 times, blood 48 hours after the last treatment
MEASUREMENT_KIND: Total protein

What value of Total protein has been recorded for this entry: CCC(C)SSc1nc(N)nc2c1ncn2C1C[C@H](O)[C@@H](CO)O1 (stereo partly drawn) [Compound A, 6-(sec-butyldithio)-2′-deoxyguanosine]
52.6 g/L

# get_value(readout='Total protein', item= Nc1nc2c(ncn2[C@H]2C[C@H](O)[C@@H](CO)O2)c(=S)[nH]1 [Compound 6-thio-dG, 6-thio-2′-deoxyguanosine, reference compound] )
51.8 g/L

I would be grateful if you could share the reported Total protein for CCC(C)SSc1ncc[nH]1 (stereo not drawn) [PX-12, 1-methylpropyl-2-imidazolyl disulfide, reference compound] .
56.9 g/L

Look up Total protein for this compound: Nc1nc(SSCc2ccc(F)cc2)c2ncn(C3C[C@H](O)[C@@H](CO)O3)c2n1 (stereo partly drawn)
50.7 g/L

Any idea what its Total protein is? The compound is CC(C)(C)SSc1nc(N)nc2c1ncn2C1C[C@H](O)[C@@H](CO)O1 (stereo partly drawn)
51.6 g/L

Returns the measured Total protein for the input compound. Input: CC(C)SSc1nc(N)nc2c1ncn2[C@H]1C[C@H](O)[C@@H](CO)O1
54.2 g/L

====

Test: Blood biochemical analysis and HE staining of tissues in HCT116 tumor-bearing nude mice
Format: in vivo
Conditions: tail vein once every two days, 12 times, blood 48 hours after the last treatment
Provide the recorded Creatine kinase for the entries that follow.
Use U/L as the unit, but write only the number.

Reported Creatine kinase, compound CCC(C)SSc1ncc[nH]1 (stereo not drawn) [PX-12, 1-methylpropyl-2-imidazolyl disulfide, reference compound] : ____
1434

Can you look up the measured Creatine kinase of CC(C)(C)SSc1nc(N)nc2c1ncn2C1C[C@H](O)[C@@H](CO)O1 (stereo partly drawn) for me?
980.7

Request the reported Creatine kinase associated with CCC(C)SSc1nc(N)nc2c1ncn2C1C[C@H](O)[C@@H](CO)O1 (stereo partly drawn) [Compound A, 6-(sec-butyldithio)-2′-deoxyguanosine]
1896

// returns reported Creatine kinase for input Nc1nc(SSCc2ccc(F)cc2)c2ncn(C3C[C@H](O)[C@@H](CO)O3)c2n1 (stereo partly drawn)
2169

Quick check: Creatine kinase of CC(C)SSc1nc(N)nc2c1ncn2[C@H]1C[C@H](O)[C@@H](CO)O1 ?
1597

So what does the record say about Creatine kinase for Nc1nc2c(ncn2[C@H]2C[C@H](O)[C@@H](CO)O2)c(=S)[nH]1 [Compound 6-thio-dG, 6-thio-2′-deoxyguanosine, reference compound] ?
2125

====

Experiment: Blood biochemical analysis and HE staining of tissues in HCT116 tumor-bearing nude mice
Type: in vivo
Conditions: tail vein once every two days, 12 times, blood 48 hours after the last treatment
Description: We took human colon cancer cell line HCT116 as the research object, and established a subcutaneous transplanted tumor model of human colon cancer in 32 immunodeficient nude mice. […] The tumor volume was calculated by taking the length of the tumor as the longest diameter and the width as the corresponding vertical diameter, and the tumor volume V=(length×width^2) mm^3/2. […]
Give measured Chloride ion for each item. Keep answers brief.
Answer format: number, then unit.

What value of measured Chloride ion is listed for CCC(C)SSc1ncc[nH]1 (stereo not drawn) [PX-12, 1-methylpropyl-2-imidazolyl disulfide, reference compound] ?
109.9 mmol/L

Field request: Chloride ion | item: CC(C)SSc1nc(N)nc2c1ncn2[C@H]1C[C@H](O)[C@@H](CO)O1
115.3 mmol/L

Looking for the measured Chloride ion of Nc1nc2c(ncn2[C@H]2C[C@H](O)[C@@H](CO)O2)c(=S)[nH]1 [Compound 6-thio-dG, 6-thio-2′-deoxyguanosine, reference compound] , can you help?
120.8 mmol/L

I would be grateful if you could share the reported Chloride ion for CC(C)(C)SSc1nc(N)nc2c1ncn2C1C[C@H](O)[C@@H](CO)O1 (stereo partly drawn) .
120.5 mmol/L

What does the record list as Chloride ion for Nc1nc(SSCc2ccc(F)cc2)c2ncn(C3C[C@H](O)[C@@H](CO)O3)c2n1 (stereo partly drawn) ?
124.0 mmol/L

Query (compound): CCC(C)SSc1nc(N)nc2c1ncn2C1C[C@H](O)[C@@H](CO)O1 (stereo partly drawn) [Compound A, 6-(sec-butyldithio)-2′-deoxyguanosine] ; field requested: Chloride ion
113.8 mmol/L
